species on record: Rattus norvegicus; assay: Open TG-GATES - Regimen: Daily Repeat; type: toxicity, organism-based, Sprague-Dawley; set-up: regimen Daily Repeat, gender Male, age 6 weeks; details: in vivo, po, 300 mg/kg, […], tissue Plasma, route gavage, dose level Middle, time 14 day
I'd be grateful if you could share measured Ca for these entries.
Give bare numbers, in mg/dL.

[[record]]
compound = "NC(N)=Nc1nc(CSCCC(N)=NS(N)(=O)=O)cs1 [FAMOTIDINE]"
result_units = "mg/dL"
test_value = 10.6


Could you tell me Ca for each of these compounds? They are listed below.
1. COc1ccc2[nH]c([S+]([O-])Cc3ncc(C)c(OC)c3C)nc2c1 (stereo not given) [OMEPRAZOLE]
2. COC1=CC(=O)C[C@@H](C)[C@]12Oc1c(Cl)c(OC)cc(OC)c1C2=O [GRISEOFULVIN]
3. CCOC(=O)CCC(=O)O[C@H]1[C@H](O[C@@H]2[C@@H](C)[C@H](O[C@H]3C[C@@](C)(OC)[C@@H](O)[C@H](C)O3)[C@@H](C)C(=O)O[C@H](CC)[C@@](C)(O)[C@H](O)[C@@H](C)C(=O)[C@H](C)C[C@@]2(C)O)O[C@H](C)C[C@@H]1N(C)C [ERYTHROMYCIN ETHYLSUCCINATE]
4. CCOc1ccc(NC(=O)CC(C)O)cc1 (stereo not given) [BUCETIN]

Result:
1. 10.5
2. 10.6
3. 10.4
4. 11.2

Data provenance is ChEMBL document CHEMBL3885861.
